TARGET OR SYSTEM: T1, human vascular endothelial growth factor receptor-2 Fc chimera (KDR-Fc) (human, UniProt P35968 20-764)
T1 construct: range 1-764; also called human VEGFR-2; VEGF-R2-Fc; not shown: human IgG1 Fc
T1 sequence (P35968 20-764 limits assumed, change not shown, form in doubt): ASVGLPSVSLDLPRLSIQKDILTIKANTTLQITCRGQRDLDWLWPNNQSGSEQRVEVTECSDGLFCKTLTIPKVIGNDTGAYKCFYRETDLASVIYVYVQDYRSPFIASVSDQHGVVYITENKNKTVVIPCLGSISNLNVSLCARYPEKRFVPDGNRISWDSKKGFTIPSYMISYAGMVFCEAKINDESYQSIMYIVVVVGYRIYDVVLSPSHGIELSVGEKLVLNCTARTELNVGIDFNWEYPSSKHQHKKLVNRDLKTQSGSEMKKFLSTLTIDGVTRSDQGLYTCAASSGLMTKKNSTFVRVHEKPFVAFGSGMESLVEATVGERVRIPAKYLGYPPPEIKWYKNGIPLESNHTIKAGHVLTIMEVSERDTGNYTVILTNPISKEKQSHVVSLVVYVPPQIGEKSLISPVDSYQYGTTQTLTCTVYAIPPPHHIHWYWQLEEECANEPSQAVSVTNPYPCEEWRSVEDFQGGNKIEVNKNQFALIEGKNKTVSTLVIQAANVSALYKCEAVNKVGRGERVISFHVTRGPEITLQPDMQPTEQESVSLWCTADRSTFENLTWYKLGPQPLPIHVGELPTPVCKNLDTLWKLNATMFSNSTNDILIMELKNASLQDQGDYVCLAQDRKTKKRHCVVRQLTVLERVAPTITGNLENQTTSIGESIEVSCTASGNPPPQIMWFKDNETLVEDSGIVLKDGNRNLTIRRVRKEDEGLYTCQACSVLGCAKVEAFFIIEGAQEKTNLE
RUN DESCRIPTION: radioactive equilibrium binding, 1 nM KDR-Fc
Procedure: To prepare ³⁵S-labeled binding proteins for analysis, mRNA was prepared as described above for RNA-protein fusion production but the linker ligation step was omitted. […] 50 μA of the reaction mixture and elution were dried onto a LumaPlate-96 (Packard) and the amount of ³⁵S on the plate was measured using a TopCount NXT instrument (Packard). […] Data was analyzed using the GraphPad Prizm software (GraphPad Software, Inc, San Diego, Calif.), fitted using a one site, non-linear binding equation.
MEASURE: Binding to 1 nM KDR, %

BINDER	RECORDED VALUE
3′E9 PR4 (designed binder, Del 1-8) EVVAATPTSLLISWRHPHFPTRYYRITYGETGGNSPVQEFTVPLQPPTATISGLKPGVDYTITGYAVTVEQDGHVLYIPISINYRT	44%
3′H8 PR4 (designed binder, Del 1-8) EVVAATPTSLLISWRHPHFPTRYYRITYGETGGNSPVQEFTVPLQPPTATISGLKPGVDYTITGYAVTVGHNDRELITPISINYRT	20%
2′Del C5 PR4 (designed binder, Del 1-8) EVVAATPTSLLISWRHPHFPTRYYRITYGETGGNSPVQEFTVPLQPPTATISGLKPGVDYTITGYAVTPGHNDHELMVPISINYRT	26%
K2 (designed binder, Del 1-8) EVVAATPTSLLISWRHPHFPTRYYRITYGETGGNSPVQEFTVPLQPPTATISGLKPGVDYTITGYAVTDGENGQFLLVPISINYRT	48%
3A2 PR3 (designed binder, Del 1-8) EVVAATPTSLLISWRHPHFPTRYYRITYGETGGNSPVQEFTVPLQPPTATISGLKPGVDYTITGYAVTWSQNNRELFTPISINYRT	23%
4′H5 PR4 (designed binder, Del 1-8) EVVAATPTSLLISWRHPHFPTRYYRITYGETGGNSPVQEFTVPLQPPTATISGLKPGVDYTITGYAVTLAQNGHELFTPISINYRT	18%
3′C5 PR4 (designed binder, Del 1-8) EVVAATPTSLLISWRHPHFPTRYYRITYGETGGNSPVQEFTVPLQPPTATISGLKPGVDYTITGYAVTDAMYGRELMTPISINYRT	27%
2′Del B5 PR4 (designed binder, Del 1-8) EVVAATPTSLLISWRHPHFPTRYYRITYGETGGNSPVQEFTVPLQPPTATISGLKPGVDYTITGYAVTAGRHDHELIIPISINYRT	33%
2′D6-PR4 (designed binder, WT N-terminus) VSDVPRDLEVVAATPTSLLISWRHPHFPTRYYRITYGETGGNSPVQEFTVPLQPPTATISGLKPGVDYTITGYAVTVTHNGHPLMTPISINYRT	22%
4′D8 PR4 (designed binder, Del 1-8) EVVAATPTSLLISWRHPHFPTRYYRITYGETGGNSPVQEFTVPLQPPTATISGLKPGVDYTITGYAVTLAQNGHELYTPISINYRT	26%
2′Del E6 PR4 (designed binder, Del 1-8) EVVAATPTSLLISWRHPHFPTRYYRITYGETGGNSPVQEFTVPLQPPTATISGLKPGVDYTITGYAVTMGKNGHELLTPISINYRT	43%
2′DelH9 PR4 (designed binder, Del 1-8) EVVAATPTSLLISWRHPHFPTRYYRITYGETGGNSPVQEFTVPLQPPTATISGLKPGVDYTITGYAVTVGWSGHELFVPISINYRT	20%
2′Del G9 PR4 (designed binder, Del 1-8) EVVAATPTSLLISWRHPHFPTRYYRITYGETGGNSPVQEFTVPLQPPTATISGLKPGVDYTITGYAVTVEQNGRELIIPISINYRT	33%
3C7 PR3 (designed binder, Del 1-8) EVVAATPTSLLISWRHPHFPTRYYRITYGETGGNSPVQEFTVPLQPPTATISGLKPGVDYTITGYAVTRGLNDGELLTPISINYRT	20%
3′H9 PR4 (designed binder, Del 1-8) EVVAATPTSLLISWRHPHFPTRYYRITYGETGGNSPVQEFTVPLQPPTATISGLKPGVDYTITGYAVTHGPYDQVLLTPISINYRT	24%
